The reported measurements were obtained from patent US20230067770A1.

tested.target: T1, human CD137-Fc fusion protein (human, UniProt Q07011 24-186, limits assumed)
T1 construct: also called huCD137
test: ELISA, hybridoma supernatant on plates coated with human CD137-Fc fusion protein

| binder | binding result |
| --- | --- |
| hybridoma anti-CD137 antibody clone 6.62 (antibody, V domains shown, Tested as hybridoma supernatant) VH: QIQLVQSGPELKKPGETVKISCKASGYSFTDYSIHWVKQAPGKGLKWMGWMNTETGEPAYADDFKGRFAFSLETAASTAYLQINHLRDEDTATYFCTRSSYGYFDYWGQGTTLTVSS VL: DVVMTQTPLSLPVSLGDQAAISCRSSQTLEHINGNTYLEWYLQKPGQSPKLLIYKVSDRFSGVPDRFSGSGSGTGFTLKISRVEAEDLGVYYCFQGSHFPLTFGGGTKLELK | binds |
